Measured 5-HT2B % Act @ Max Dose accompanies every entry in the list below.
- Experimental System: 5-HT2B receptor (Homo sapiens)
- Construct: host or cells: HEK293
- Sequence (P41595 whole entry): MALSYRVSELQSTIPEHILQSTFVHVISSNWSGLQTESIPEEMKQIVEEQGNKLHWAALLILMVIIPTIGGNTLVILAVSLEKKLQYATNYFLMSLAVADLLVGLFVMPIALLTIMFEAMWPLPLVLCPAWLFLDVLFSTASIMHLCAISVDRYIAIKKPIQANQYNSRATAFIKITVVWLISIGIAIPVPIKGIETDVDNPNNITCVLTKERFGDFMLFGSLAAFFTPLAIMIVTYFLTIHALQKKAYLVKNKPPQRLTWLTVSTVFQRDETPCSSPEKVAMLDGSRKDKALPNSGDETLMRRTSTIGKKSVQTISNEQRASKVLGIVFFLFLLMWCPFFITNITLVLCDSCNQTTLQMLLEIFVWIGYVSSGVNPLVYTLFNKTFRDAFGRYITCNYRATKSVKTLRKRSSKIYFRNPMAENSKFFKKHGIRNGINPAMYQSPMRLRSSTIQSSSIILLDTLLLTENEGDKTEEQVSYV
- Assay: cell-based
- Experimental Setup: Ca^2+ flux, agonist
Answer in %, number only, no unit symbol.

[
  {
    "Structure As Smiles": "CCN(CC)C(=O)[C@@H]1C=C2c3cccc4[nH]cc(c34)C[C@H]2N(CCc2cccc(OC)c2)C1",
    "Parameter": "5-HT2B % Act @ Max Dose",
    "Measured Number": 3.60
  },
  {
    "Structure As Smiles": "CN1C[C@H](C(=O)N2CCCC2)C=C2c3cccc4[nH]cc(c34)C[C@H]21",
    "Parameter": "5-HT2B % Act @ Max Dose",
    "Measured Number": 21.35
  },
  {
    "Structure As Smiles": "CCN(CC)C(=O)[C@@H]1C=C2c3cccc4[nH]cc(c34)C[C@H]2N(CCF)C1",
    "Parameter": "5-HT2B % Act @ Max Dose",
    "Measured Number": 85.46
  }
]

// moving on: another record for 5-HT2B % Act @ Max Dose
Asked: Note down 5-HT2B % Act @ Max Dose recorded for C=CCN1C[C@H](C(=O)N2[C@@H](C)C[C@@H]2C)C=C2c3cccc4[nH]cc(c34)C[C@H]21
Given back: 96.0

The values you see were collected from patent US20230116703A1.
